Cited source: PubChem BioAssay AID1159580

test: chemical genetic growth profiling, strain panel (AID 1159580);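 also: tested at 20 µM; growth read once vehicle control cultures reached saturation at 30 °C; 1 = growth at the plate median or of vehicle wells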; conditions: S. cerevisiae deletion strains, growth OD, locus YJR043C, strain POL32, stronger effect = lower value
The campaign covered roughly 5,500 compounds. About 2,000 (36%) were called active. Roughly 18% stayed inconclusive and do not appear here. The list shows a part of the results.
Readout Kind: normalized growth
One number for each entry.

For orientation, consider the following solved cases.
Molecule	normalized growth
Cc1ccc(-c2csc(-c3ccc(Oc4ccc(C(F)(F)F)cn4)cc3)n2)c(C)c1	1.01
Clc1ccc(C=C2c3ccccc3-c3ccccc32)cc1	0.981
NC(=O)NCCCC(N)C(=O)O (stereo not given)	1.03
CC(=O)[C@@]1(O)CCC2C3C[C@H](C)C4=CC(=O)C=CC4(C)[C@@]3(F)[C@@H](O)C[C@@]21C (stereo not given in full)	0.99

Below: the item to evaluate.
Specify reported normalized growth for the molecule shown: "O=S(=O)(Oc1cc(Cl)cc(Cl)c1)c1cccc(S(=O)(=O)Oc2cc(Cl)cc(Cl)c2)c1" 1

* * *

assay: chemical genetic growth profiling, strain panel (AID 1159580); conditions: S. cerevisiae deletion strains, growth OD, locus YLL041C, strain sdh2
Hit rate of the full screen: of about 5,500 compounds, about 2,000 (36%) were called active. Roughly 18% stayed inconclusive and do not appear here. No stated cut-off is given here; in the data, active means normalized growth mostly below about 0.91 (no sharp cut-off); inconclusive means no clear call, values can overlap the other calls; inactive means mostly above about 0.92. The list shows a part of the results.
Permitted responses: active, inactive

Compound	Class Assignment
CC1(C)O[C@H]2CC(=O)OC[C@]23[C@H]2CC[C@@]4(C)[C@H](c5ccoc5)OC(=O)[C@H]5O[C@]54[C@]2(C)C(=O)C[C@@H]13	inactive

Assay outcome for CC1(C)C(=O)C=C[C@@]2(C)C1CC(=O)[C@]1(C)C2CC[C@@]2(C)[C@H](c3ccoc3)OC(=O)[C@H]3O[C@]321 (some centres not stated) : what was it? inactive

Please indicate how the test categorized C[N+](C)(C)CC(O)CC(=O)O (configuration not stated) . inactive

Would you mind telling me which call this test gave CN[C@@H]1[C@@H](O)C(OC2[C@@H](N)C[C@@H](N)[C@H](O[C@H]3O[C@H](C(C)O)[C@@H](O)[C@H](O)[C@H]3N)[C@H]2O)OC[C@]1(C)O (some centres not stated) ? inactive

* * *

assay: chemical genetic growth profiling, strain panel (AID 1159580); details: S. cerevisiae deletion strains, growth OD, locus YGL240W, strain doc1, stronger effect = lower value
Hit rate of the full screen: of about 5,500 compounds, about 2,000 (36%) were called active. About 18% were inconclusive and are not listed. Some of the results follow.
Mark y for normalized growth under 1, n if at or over.

Field: example entries. Status: answers known.
Compound	Class Assignment
CC(=O)Oc1ccc2c(c1OC(C)=O)OCC1(O)Cc3c(cc(OC(C)=O)c(OC(C)=O)c3OC(C)=O)C21 (stereo not drawn)	n
C[C@@H]1CC[C@@]2(NC1)O[C@H]1C[C@H]3C4CC=C5C[C@@H](O)CC[C@]5(C)C4CC[C@]3(C)C1[C@@H]2C (stereo partly drawn)	y
CC1CC[C@]2(NC1)O[C@H]1CC3C4CC[C@H]5C[C@@H](O)CC[C@]5(C)C4CC[C@]3(C)[C@H]1[C@@H]2C (stereo partly drawn)	y

# evaluate next
# check: normalized growth < 1 for Oc1cc2c(cc1O)C1c3ccc(O)c(O)c3OCC1(O)C2 (stereo not drawn) n

* * *

assay: chemical genetic growth profiling, strain panel (AID 1159580); conditions: S. cerevisiae deletion strains, growth OD, locus YNL153C, strain GIM3
Screen size: about 5,500 compounds; about 2,000 (36%) were called active. Not shown: some 18% with an inconclusive outcome. Cut-off read from the data, not from the text of the source: active = normalized growth mostly below about 0.91 (no sharp cut-off); inconclusive = no clear call, values can overlap the other calls; inactive = mostly above about 0.92. The list shows a part of the results.
Return exactly one item of active, inactive

State the result this test recorded for CCCCCCC(C)OC(=O)COc1ccc(Cl)cc1Cl (stereo not given) . inactive

* * *

assay: chemical genetic growth profiling, strain panel (AID 1159580); settings: S. cerevisiae deletion strains, growth OD, locus YJL134W, strain LCB3, stronger effect = lower value
Out of some 5,500 compounds screened, about 2,000 (36%) were called active. About 18% were inconclusive and are not listed. The list shows a part of the results.
Please respond with reported normalized growth for every item in the list.
Numbers only.

Consider the following illustrative entries.
Compound	normalized growth
NS(=O)(=O)c1cc(C2(O)NC(=O)c3ccccc32)ccc1Cl (stereo not given)	1
CC(C)(C)NCC(O)c1cc(O)cc(O)c1 (stereo not given)	0.987
C[C@@H]1O[C@@H](OC[C@H]2OC(Oc3c(-c4ccc(O)c(O)c4)oc4cc(O)cc(O)c4c3=O)[C@H](O)[C@@H](O)[C@@H]2O)[C@H](O)[C@H](O)[C@H]1O (stereo not given in full)	0.997
NC(=O)c1ncn([C@@H]2O[C@H](CO)[C@@H](O)[C@H]2O)n1	1

Now take the following compound into account.
Give normalized growth for the following compound: "COc1cccc2c(C)cc(=O)[nH]c12" 0.968

* * *

assay: chemical genetic growth profiling, strain panel (AID 1159580);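 also: tested at 20 µM; growth read once vehicle control cultures reached saturation at 30 °C; 1 = growth at the plate median or of vehicle wells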; settings: S. cerevisiae deletion strains, growth OD, locus YOR270C, strain vph1
Out of some 5,500 compounds screened, about 2,000 (36%) were called active. Roughly 18% stayed inconclusive and do not appear here. Cut-off read from the data, not from the text of the source: active = normalized growth mostly below about 0.91 (no sharp cut-off); inconclusive = no clear call, values can overlap the other calls; inactive = mostly above about 0.92. Some of the results follow.
Parameter call: string, one of active, inactive

For orientation, consider the following solved cases.
Compound	Class Assignment
C=C(C)[C@H]1COc2cc3oc(=O)ccc3cc2O1	active
CCN(Cc1ccncc1)C(=O)C(CO)c1ccccc1 (stereo unspecified)	inactive
COc1ccc(-c2cc(=O)c3c(O)cc(O[C@H]4O[C@H](CO[C@@H]5O[C@@H](C)[C@H](O)[C@@H](O)[C@H]5O)[C@@H](O)[C@H](O)[C@H]4O)cc3o2)cc1	inactive

How did this test come out for C[C@@H]1O[C@@H](OC[C@H]2OC(Oc3c(-c4ccc(OCCO)c(OCCO)c4)oc4cc(OCCO)cc(O)c4c3=O)[C@H](O)[C@@H](O)[C@@H]2O)[C@H](O)[C@H](O)[C@H]1O (stereo partly specified) ? inactive

# fetch the recorded call for "NC(N)=NC(=O)c1nc(Cl)c(N)nc1N" here inactive

Could you kindly confirm the outcome this assay logged for O=c1ccc2cc(OC3OC(CO)C(O)C(O)C3O)c(O)cc2o1 (stereo unspecified) ? inactive

Tell me the assay call for CCCCCCC(C)OC(=O)COc1ccc(Cl)cc1Cl (stereo unspecified) please. inactive

Hi team, can someone confirm the assay call for "CNC(=O)Oc1cccc2c1OC(C)(C)O2" ? inactive

* * *

assay: chemical genetic growth profiling, strain panel (AID 1159580);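 also: tested at 20 µM; growth read once vehicle control cultures reached saturation at 30 °C; 1 = growth at the plate median or of vehicle wells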; conditions: S. cerevisiae deletion strains, growth OD, locus YCL061C, strain MRC1, stronger effect = lower value
Out of some 5,500 compounds screened, about 2,000 (36%) were called active. About 18% were inconclusive and are not listed. The list shows a part of the results.
Readout Kind: normalized growth
One number for each entry.

Compound	normalized growth
CC1(C)C(=O)C=C[C@@]2(C)C1C[C@@H](O)[C@]1(C)C2CC[C@@]2(C)[C@H](c3ccoc3)OC(=O)[C@H]3O[C@]321 (some centres undefined)	0.998
CNC(=O)Oc1cccc2c1OC(C)(C)O2	0.998
CC(C)[N+](C)(CCC(C(N)=O)(c1ccccc1)c1ccccc1)C(C)C	0.97
COC(=O)[C@]1(C)CCC[C@]2(C)c3ccc(C(C)C)cc3C(=O)CC12 (some centres undefined)	0.968
CO[C@@]1(NC(=O)C(C(=O)O)c2ccc(O)cc2)C(=O)N2C(C(=O)O)=C(CSc3nnnn3C)CO[C@@H]21 (some centres undefined)	1
CC(CC(C(N)=O)(c1ccccc1)c1ccccc1)N(C)C (centres undefined)	0.981

Fill in normalized growth for each of the 3 compounds listed.
1. CC(=O)O[C@]1(C(C)=O)CCC2C3C=C(Cl)C4=CC(=O)[C@@H]5C[C@@H]5[C@]4(C)C3CC[C@@]21C (some centres undefined)
2. CC(C)N(CCC(C(N)=O)(c1ccccc1)c1ccccn1)C(C)C (centres undefined)
3. CC1(C)C(=O)C=C[C@@]2(C)C1CC(=O)[C@]1(C)C2CC[C@@]2(C)[C@H](c3ccoc3)OC(=O)[C@H]3O[C@]321 (some centres undefined)

1.02
0.0703
0.988

* * *

assay: chemical genetic growth profiling, strain panel (AID 1159580);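 also: tested at 20 µM; growth read once vehicle control cultures reached saturation at 30 °C; 1 = growth at the plate median or of vehicle wells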; details: S. cerevisiae deletion strains, growth OD, locus YJL154C, strain vps35, stronger effect = lower value
Hit rate of the full screen: of about 5,500 compounds, about 2,000 (36%) were called active. Roughly 18% stayed inconclusive and do not appear here. This is one part of the list.
Readout Kind: normalized growth
Give bare numbers.

Molecule	Test Value
CC(C)(C)NCC(O)c1cc(Cl)c(N)c(Cl)c1 (stereo not given)	1
CO[C@@]1(NC(=O)C(C(=O)O)c2ccc(O)cc2)C(=O)N2C(C(=O)O)=C(CSc3nnnn3C)CO[C@@H]21 (stereo not given in full)	0.975
CCCC(C)(COC(N)=O)COC(=O)NC(C)C (stereo not given)	0.992
CCCCC1C(=O)N(c2ccccc2)N(c2ccc(O)cc2)C1=O (stereo not given)	1

Field: next molecule
Answer with the recorded normalized growth of CC(=O)[C@@]1(O)CCC2C3C[C@H](C)C4=CC(=O)C=CC4(C)[C@@]3(F)[C@@H](O)C[C@@]21C (stereo not given in full) only. 0.984
